Each recorded value in this set is attributed to patent US20230348362A1.

- TEST NAME: Lipid clearance study: lipid remaining in liver tissue by LC-MS/MS
- PARTICULARS: 6 h; ICR female mice, 0.5 mg/kg i.v. bolus dose mRNA
ENDPOINT NAME: % Dose Remaining in Liver Tissue (%)

[I] CCCCCCCCC(CCCCCCCC)CNC(=O)CCCCCN1CCC(N(CCO)CCCCC(COC(=O)CCCCCCC)COC(=O)CCCCCCC)CC1
[II] CCCCCCCC(=O)OCC(CCCCN(CCO)CCN(CCCCC(COC(=O)CCCCCCC)COC(=O)CCCCCCC)C1CCC1)COC(=O)CCCCCCC
[III] CCCCCCCCCCCOC(=O)CCCCCN(CCN(CCO)CCCCCOC(=O)N(CCCCCCCC)CCCCCCCC)C1CCCCC1
Query: Parameters: sort_field (% Dose Remaining in Liver Tissue), sort_dir (desc). // respond by listing labels in the order requested
Result: III, I, II
(III: 22.45%, I: 7.38%, II: 1.34%)

====

- TEST NAME: Apparent pKa of LNP formulations, TNS fluorescence assay
- Type: physicochemical
- PARTICULARS: LNP cationic lipid/DSPC/cholesterol/DMG-PEG 50/10/38.5/1.5 mol %
ENDPOINT NAME: Apparent Pka

>  <COMPOUND>
CCCCCCCCC(CCCCCCCC)CNC(=O)CCCCCN(CCO)CCN(CCCCCC(=O)OCC(CCCCCCCC)CCCCCCCC)C1CCCC1

>  <Apparent Pka>
6.757

$$$$
>  <COMPOUND>
CCCCCCCCC(CCCCCC)CNC(=O)CCCCCN(CCOCCO)CCN(CCCCC(COC(=O)CCCCCCC)COC(=O)CCCCCCC)C1CCCCCC1 (stereo not drawn)

>  <Apparent Pka>
6.657

$$$$
>  <COMPOUND>
CCCCCCCCCCCC(=O)NCCCCCN(CCN(CCO)CCCCCNC(=O)CC(CCCCCCCC)CCCCCCCC)C1CCCCC1

>  <Apparent Pka>
7.327

$$$$
>  <COMPOUND>
CCCCCCCCC(CCCCCCCC)COC(=O)CCCCCN(CCO)CCN(CCCCCC(=O)OCC(CCCCCCCC)CCCCCCCC)CCC(C)C

>  <Apparent Pka>
6.044

$$$$
>  <COMPOUND>
CCCCCCCCC(CCCCCCCC)COC(=O)CCCCCN(CCNc1c(NC)c(=O)c1=O)CCN(CCCCCC(=O)OCC(CCCCCCCC)CCCCCCCC)C1CCC1

>  <Apparent Pka>
6.298

$$$$
>  <COMPOUND>
CCCCCCCCC(CCCCCCCC)COC(=O)CCCCCN(CCN(CCCCCC(=O)OCC(CCCCCCCC)CCCCCCCC)C1CCC(O)CC1)C1CCC1 (stereo not drawn)

>  <Apparent Pka>
5.951

$$$$

====

- TEST NAME: Apparent pKa of LNP formulations, TNS fluorescence assay
- Format: physicochemical
- PARTICULARS: LNP cationic lipid/DSPC/cholesterol/DMG-PEG 50/10/38.5/1.5 mol %
ENDPOINT NAME: Apparent Pka

>  <COMPOUND>
CCCCCCCCC(CCCCCC)CNC(=O)CCCCCN(CCOCCO)CCN(CCCCC(COC(=O)CCCCCCC)COC(=O)CCCCCCC)C1CCCCC1 (stereo not drawn)

>  <QUANTITATIVE RESULT>
6.81

$$$$
>  <COMPOUND>
CCCCCCCCOC(=O)C(CCCCN(CCN(CCO)CCCCCC(=O)OCC(CCCCCC)CCCCCCCC)C1CCC1)C(=O)OCCCCCCCC (stereo not drawn)

>  <QUANTITATIVE RESULT>
6.395

$$$$
>  <COMPOUND>
CCCCCCCCC(CCCCCCCC)CC(=O)NCCCCCN(CCO)CCN(CCCCCNC(=O)CC(CCCCCCCC)CCCCCCCC)C1CCC1

>  <QUANTITATIVE RESULT>
6.761

$$$$
>  <COMPOUND>
CCCCC/C=C\CCCOC(=O)CCCCCN(CCN(CCO)CCCCCC(=O)OCC(CCCCCCCC)CCCCCCCC)C1CCCCC1

>  <QUANTITATIVE RESULT>
6.269

$$$$
>  <COMPOUND>
CCCCCCCCC(CCCCCCCC)CNC(=O)CCCCCN(CC=C(C)C)CCN(CCO)CCCCCC(=O)NCC(CCCCCCCC)CCCCCCCC

>  <QUANTITATIVE RESULT>
6.817

$$$$
>  <COMPOUND>
CCCCCCCCC(CCCCCC)COC(=O)CCCCCN(CC=C(C)C)CCN(CCO)CCCCC1COC(C(CCCCCC)CCCCCCCC)OC1 (stereo not drawn)

>  <QUANTITATIVE RESULT>
6.368

$$$$
